// data source = ChEMBL document CHEMBL3792377

# measured target: D(4) dopamine receptor (Homo sapiens, UniProt P21917)
# Sequence (P21917 whole entry): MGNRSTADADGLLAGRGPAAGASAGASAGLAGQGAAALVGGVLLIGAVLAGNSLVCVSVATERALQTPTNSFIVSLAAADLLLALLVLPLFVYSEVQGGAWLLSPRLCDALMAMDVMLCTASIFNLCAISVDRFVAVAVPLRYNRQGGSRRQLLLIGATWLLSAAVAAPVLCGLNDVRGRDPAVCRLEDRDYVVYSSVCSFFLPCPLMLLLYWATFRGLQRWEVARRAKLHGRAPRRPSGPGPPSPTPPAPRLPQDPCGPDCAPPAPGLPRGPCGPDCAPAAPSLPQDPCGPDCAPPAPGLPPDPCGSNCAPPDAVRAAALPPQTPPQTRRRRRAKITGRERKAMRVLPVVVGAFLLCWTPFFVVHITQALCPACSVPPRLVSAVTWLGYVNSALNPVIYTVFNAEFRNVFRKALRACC
# assay method text: Displacement of [3H]-Spiperone from human recombinant dopamine D4 receptor expressed in CHOK1 cells
pIC50: −log10 of the molar value.
readout type: pIC50

In the examples that follow, each entry is paired with its recorded pIC50.
# chemical smiles, endpoint result
records = [
    ("Clc1ccc(CN2CCO[C@H](CSc3ccccc3)C2)cc1", 7.47),
    ("COc1ccc(CN2CCO[C@H](COc3ccc(OC)cc3)C2)cc1", 6.42),
    ("Fc1cc(CN2CCO[C@H](COc3ccccc3)C2)ccc1C(F)(F)F", 7.24),
    ("COc1cc(CN2CCO[C@H](COc3ccccc3)C2)ccc1Cl", 7.38),
    ("c1ccc(OC[C@@H]2CN(Cc3ccc4[nH]ccc4c3)CCO2)cc1", 7.24),
    ("COc1ccc(CN2CCO[C@H](COc3cccc(F)c3)C2)cc1", 7.04),
    ("Clc1ccc(CN2CCO[C@H](COc3ccccc3)C2)cc1Cl", 7.01),
]

A. Fc1ccc(CN2CCO[C@H](COc3ccccc3)C2)cc1C(F)(F)F
B. Fc1ccc(OC[C@@H]2CN(Cc3ccc(Cl)cc3)CCO2)cc1
C. Clc1ccc(CN2CCO[C@H](COc3ccccn3)C2)cc1
D. Fc1cc(CN2CCO[C@H](COc3ccccc3)C2)ccc1Cl
Arrange these 4 molecules in increasing order of pIC50. // list labels; follow requested order C, A, D, B
